- Tested on: LOX IMVI melanoma
- methodNotes: NCI-60 one-dose screen, 48 h (100 = growth as untreated, 0 = no growth, -100 = all killed)
- experimentalSetup: 10 µM unless noted
This is part of a sample that, as a whole, favours compounds with a hit. Of some 83,000 tested, about 20% had one in any assay.
This listing pairs molecules with measured growth.
Expressed in %, but write only the number.

The following molecules have reported results that may help.
[
  {
    "molecule": "COc1ccc(C2CC(c3ccccc3)=NN2C(=O)c2cc(OC)c(OC)c(OC)c2)cc1O (centres undefined)",
    "growth (%)": 42.9
  },
  {
    "molecule": "COC12C=C/C(=C(/C(=O)OCc3csc(SC)n3)C(=O)CCCCCCCCC3(OC)C=C/C(=C(/C(=O)OCc4cnc(SC)s4)C(=O)CCCCCCCC1)O3)O2 (centres undefined)",
    "growth (%)": -22.9
  },
  {
    "molecule": "C=CCn1cc(-c2nc3ccccc3s2)c2cc(-c3ccc4c5c(cccc35)C(=O)N(CCO)C4=O)ccc21",
    "growth (%)": 95.4
  },
  {
    "molecule": "CN(C)CCCNC(=O)c1cncnc1Nc1ccc2c(ccn2Cc2cccc(F)c2)c1",
    "growth (%)": 76.7
  },
  {
    "molecule": "C=C(C)[C@@H]1CC[C@]2(CO)CC[C@]3(C)[C@H](CC[C@@H]4[C@@](C)(CCCN)[C@H](C(=C)C)CC[C@]43C)[C@@H]12",
    "growth (%)": -97.8
  },
  {
    "molecule": "CN(C)CCCC1(c2ccc(F)cc2)OCc2cc(-c3csc4ccccc34)ccc21 (centres undefined)",
    "growth (%)": -97.9
  }
]

The reported growth of the molecule O=S(O)c1cc(Cl)cc(Cl)c1OCc1ccccc1 was 108

Entry O=C1Nc2ccc(Cl)cc2/C1=C/c1ccc[nH]1 — recorded growth = 95.5

# growth of CCn1cc(C(=O)N/N=C/c2ccccc2)c(=O)c2cc(F)c(N3CCNC(C)C3)c(F)c21 (centres undefined) = -87.3
